Below, each entry is listed alongside its reported SH2 binding enrichment.
Target: Grb2 SH2 (UniProt P62993)
Sequence (P62993 whole entry, looked up, the tested form may be a part): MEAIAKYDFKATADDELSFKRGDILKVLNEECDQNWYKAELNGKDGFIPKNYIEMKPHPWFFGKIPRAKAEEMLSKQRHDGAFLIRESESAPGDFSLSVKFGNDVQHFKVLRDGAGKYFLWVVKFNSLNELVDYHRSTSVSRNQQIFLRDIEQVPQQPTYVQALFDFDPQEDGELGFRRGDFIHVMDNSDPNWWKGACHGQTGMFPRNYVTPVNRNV
Assay: SH2 binding enrichment of the phosphorylated peptide, bacterial display (enrichment ratio); higher = better substrate or ligand; peptides without Tyr show the background;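 note: peptide library displayed on the E. coli surface as eCPX fusions, selected cells deep-sequenced, score is each peptide's frequency after selection divided by its frequency in the input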

SEQUENCE_CONTENT	SH2 binding enrichment
YLGRDYLETLM [DUS3L_Y610]	0.748
DPYHVYIKNHV [KCNE3_Y95_R99H]	0.804
KAESWYQTKFE [KRT75_Y342_E337K_YF]	0.915
KYLENYYDLKK [MMP3_Y41]	1.02
ELQGTYTSLQQ [KIF3C_Y574_R571Q]	0.827
ATGMEYLASQK [FGFR2_Y616_R612T]	1.01
DSSIRYLQEIH [FGG_Y135_Y140H]	0.705
QPEDIYHQTWA [GBA_Y244_G241E]	1.09
SLGSPYGQPPR [PDLIM4_Y137]	1.06
CVAARYMDMKG [WFIKKN2_Y93_V96M]	0.95
AEDKPYAELWM [MPI_Y46]	0.778
GGFTCCCDGKK [PROS1_Y266_Y266C_YF]	0.787
VVQGIYGFHHH [UFSP2_Y285_Y290H_YF]	1.06
EAIMTYVSSFY [ACTN4_Y260_K255E]	0.712
TVQIMYGCDVG [HLA-A_Y123_I119V]	0.861
QNRELYSEGLG [CNKSR1_Y665]	0.74

These measurements were taken from the supplement of paper PMC10065799.
